meta.source: patent US9062041B2

# Study system: EP2 subtype of the human PGE2 receptor (Homo sapiens, UniProt P43116)
# Sequence (P43116 whole entry): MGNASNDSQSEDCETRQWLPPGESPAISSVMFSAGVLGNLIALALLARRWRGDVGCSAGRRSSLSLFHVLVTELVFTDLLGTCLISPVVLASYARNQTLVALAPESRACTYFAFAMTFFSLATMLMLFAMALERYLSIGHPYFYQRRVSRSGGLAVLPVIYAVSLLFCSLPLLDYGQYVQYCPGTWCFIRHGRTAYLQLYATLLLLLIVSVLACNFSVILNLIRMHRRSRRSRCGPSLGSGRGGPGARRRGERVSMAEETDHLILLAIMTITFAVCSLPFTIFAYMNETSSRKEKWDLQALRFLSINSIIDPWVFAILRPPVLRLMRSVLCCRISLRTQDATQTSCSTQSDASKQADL
# Assay explanation: cAMP antagonism test on the human EP2 receptor (HTRF cAMP detection)
# Format: cell-based
# Experimental conditions: hEP2 receptor, read-out: Antagonism hEP2 IC50
Experimental endpoint: IC50 (nM)

In the examples that follow, each entry is paired with its recorded IC50.
Cc1c(C(=O)NCCOCC(F)(F)F)ccc2nn(CC3CCN(C(=O)c4ccc(C(F)(F)F)cc4)CC3)cc12 = 11.5
COc1ccc2c(c1)cc(C(=O)N1CCC(Cn3cc4c(C)c(C(=O)NCC(F)(F)F)ccc4n3)CC1)n2C = 28.3
Cc1c(C(=O)NCC(F)(F)F)ccc2nn(CC3CCN(C(=O)c4ccc(Br)cc4)CC3)cc12 = 79
COCCNC(=O)c1ccc2nn(CC3CCN(C(=O)c4ccc(-c5ccc(F)cc5)c(C)c4)CC3)cc2c1C = 3.14
Cc1c(C(=O)NCC(F)(F)F)ccc2nn(CC3CCN(C(=O)c4nc5ccccc5o4)CC3)cc12 = 541
COCCNC(=O)c1ccc2nn(CC3CCN(C(=O)c4ccc(OC)cc4)CC3)cc2c1C = 35.8
Cc1c(C(=O)NCCN2CCOCC2)ccc2nn(CC3CCN(C(=O)c4ccc(-c5ccc(F)cc5)cc4)CC3)cc12 = 321
Cc1cc2nn(CC3CCN(C(=O)c4cccc(S(F)(F)(F)(F)F)c4)CC3)cc2cc1C(=O)NCCN1CCOCC1 = 513
Cc1c(C(=O)NCCOC(C)C)ccc2nn(CC3CCN(C(=O)c4ccc(-c5ccc(F)cc5)cc4)CC3)cc12 = 6.21
Cc1c(C(=O)NCC(C)OC2CCC2)ccc2nn(CC3CN(C(=O)c4ccc(Cl)cc4)C3)cc12 (racemic) [Example 154] = 80.8

1. Cc1c(C(=O)NCC(F)(F)F)ccc2nn(CC3CN(C(=O)c4ccc(Oc5ccc(F)cc5)cc4)C3)cc12
2. COCCNC(=O)c1ccc2nn(CC3CN(C(=O)c4ccc5cc(OC)ccc5c4)C3)cc2c1C
3. COCCNC(=O)c1ccc2nn(CC3CCN(C(=O)c4ccc(Oc5cccnc5)cc4)CC3)cc2c1C
Hi! Can you put these in order of IC50, lowest number first? List the labels, following the order given in the request.
2, 3, 1

P. Cc1c(C(=O)NCCOC(C)(C)C)ccc2nn(CC3CCN(C(=O)c4ccc(Cl)cc4)CC3)cc12
Q. Cc1ccc(-c2ccc(C(=O)N3CCC(Cn4cc5c(C)c(C(=O)NCC(F)(F)F)ccc5n4)CC3)cc2)nc1
Between P and Q , which one shows the smaller IC50 number? Give the label under which the chosen entry appears.
P
